# Tested on: A498
# protocol_text: NCI tumour cell line growth inhibition, 48 h
Activity calls are given as the source filed them. No stated cut-off is given here; in the data, active = GI50 up to about 1.1 µM and inactive = higher.
Classes used: label 1 (active), label 0 (inactive)

- C/C(=N\NC(=S)NC(CCC(=O)O)C(=O)O)c1cnccn1 (stereo not drawn): label 0
- CS(=O)(=O)C(=Cc1ccccc1Cl)S(C)(=O)=O: label 0
- O=C(NC12CC3CC(CC(C3)C1)C2)n1cnc2cncnc21: label 0
- Cc1ccc2nc(CC(=O)c3ccc4ccccc4c3)c(O)nc2c1: label 0
- N#CC1=C(N)OC(c2ccc([N+](=O)[O-])cc2)C1(C#N)C#N (stereo not drawn): label 0
- COc1ccc(NC(=O)C(=O)C(C(=O)c2ccccc2)C2OC(=O)c3ccccc32)c([N+](=O)[O-])c1 (stereo not drawn): label 0
- COCC(=O)CP(=O)(OC)OC: label 0
- CC(C)N1CSC(=S)N(Cc2ccccc2)C1: label 0
- CCCCCCCCCCCC(=O)OCC1OC(n2cc(F)c(=O)[nH]c2=O)C(NC(=O)OCc2ccccc2)C(O)C1O (stereo not drawn): label 0
- O=C1C(=O)N(c2cccc(C(F)(F)F)c2)C(=O)C(=O)C1c1nc2ccccc2s1: label 0
- COc1ccc2[nH]c(CCNC(=O)c3cc([N+](=O)[O-])cc([N+](=O)[O-])c3)cc2c1: label 0
- C/C(=N\NC(=S)NC(C)(C)C)c1nc2cccnc2[nH]1: label 0
- OC1(c2cc3ccccc3s2)CCCCC1: label 0
- COc1ccc(C)cc1NC(=S)C#N: label 0
- O=C1C(c2ccccc2)=C(c2ccccc2)[C@H](c2ccccc2)[C@]1(Cc1nnn(-c2ccc([N+](=O)[O-])cc2)c1N1CCOCC1)c1ccccc1: label 0
- CCO/C=N/NC(=O)CSc1nc2ccc(I)cc2c(=O)n1Cc1ccccc1: label 0
- c1ccc(C(=NNc2nc3ccccc3[nH]2)c2ccccn2)nc1: label 1
- Cc1cc(N(CCOS(C)(=O)=O)CCOS(C)(=O)=O)ccc1C=O: label 0
